Listed here: items and their measured Percent Effect.
# Test system: Wolbachia pipientis
# assay procedure: Anti-Wolbachia Cell-Based Screen
# Format: functional
# Design: scale not given: in the data most compounds retested in dose-response had high values
# details: 5 µM
The whole screen tested about 48,000 compounds, of which about 13,000 (27%) showed an effect of 50% or more. This is one part of the list.

molecule	readout units	Percent Effect
O=C(NCC(F)(F)F)C1CSCN1S(=O)(=O)c1ccc(F)cc1 (stereo not drawn)	%	3.931
CC(C)CNc1nccc(-c2cnc3sc(Cl)cn3c2=O)n1	%	98.56
CN(Cc1ccc(C#N)cc1)C(=O)c1ccnc(OC2CCC2)c1	%	-4.84
Cn1ccc(CNC(=O)N2CCCC3(C2)OCCO3)c1	%	-4.368
CN(Cc1nncn1C)c1nccc(N2CCC(O)CC2)n1	%	2.442
CCN(CC1CCOC1)C(=O)Nc1ccc(-n2cncn2)nc1 (stereo not drawn)	%	-5.162
CCS(=O)(=O)N1Cc2c(Cn3ccnc3)nn(C)c2C1	%	-18.78
CC(C)(C)c1ncc(C(=O)NCCNC(=O)c2ccc(O)cc2)s1	%	102.8
CCN(CC)C(=O)c1cc(C2(C)CCN(C(C)=O)CC2)nc(C)n1	%	112.9
COc1ccc(CNC(=O)Nc2cccnc2N2CCCC2)cc1O	%	5.848
CCc1nnc(CN(C)c2nccc(N3CCCC(O)C3)n2)o1 (stereo not drawn)	%	80.06
CC(=O)N1N=C(c2ccccc2)OC1C(=O)N(C)CCc1ccccc1 (stereo not drawn)	%	94.62
Cn1cc(C(=O)Nc2cccc(F)c2)ccc1=O	%	0.158
CCc1ccsc1C(=O)N(C)CCc1ccncc1	%	33.97
CC(=O)N1CCC(C)(c2cc(C(=O)NCC3CC3)nc(C)n2)CC1	%	107.8
COc1ccc(C)cc1NC(=O)Nc1cnc(N2CCCC2)nc1	%	135.2
COc1ccc(CNC(=O)C2(C#N)CCCC2)cc1	%	-22.34
Cc1nc(NCc2ccc(C)o2)cc(C(=O)N2CCOCC2)n1	%	-3.993
O=C(COc1ccc(Cl)cc1)Nc1cnc(N2CCOCC2)nc1	%	-3.73
CN(CCO)Cc1nnc(C2CCN(C(=O)c3cc[nH]c3)CC2)n1C	%	-143.4
CC(=O)N1CCN(c2cc(-n3cnc(C)c3C)nc(C)n2)CC1	%	-7.107
CCc1nc(C2CCCN(c3nccc(N4CCCC4)n3)C2)no1 (stereo not drawn)	%	-11.44
O=S(=O)(NCCC(O)c1cccs1)c1ccccc1Cl (stereo not drawn)	%	10.54
CC[C@@H](CO)Nc1nccc(-c2cnc3sc(C)cn3c2=O)n1	%	82.9
N#Cc1cc(N2CCC(CS(N)(=O)=O)CC2)nc2ccccc12	%	-7.143
CC(C)c1nc(C2CCCN(c3nccc(N4CCCC4)n3)C2)no1 (stereo not drawn)	%	-3.198
COCCN(Cc1cccs1)c1nc(CCN)nc2ccccc12	%	106.1
CN(Cc1nccn1C)c1nccc(N2CCCC(O)C2)n1 (stereo not drawn)	%	5.071
NC1(CNC(=O)c2cc3ccccc3[nH]2)CCCC1	%	106.9
CN(CCN1CCCCCC1)c1nccc(N2CCC(O)C2)n1 (stereo not drawn)	%	17.45
COc1ccc2[nH]c(C(=O)NCC3(N)CCCC3)cc2c1	%	112.8
Cc1nc(CN2CCC(CNC(=O)C3(C)CCCC3)CC2)oc1C	%	-9.195
O=C1OCCN1CCOc1nc(-c2ccccc2Cl)no1	%	-11.04
COCCN(Cc1ccccc1C)c1nc(C)nc2oc(C)nc12	%	9.543
CCc1ccccc1OCCN1C[C@@H](NS(C)(=O)=O)[C@H](C(C)C)C1	%	0.8676
CN(CCc1ccccc1)C(=O)CN1C(=O)OC[C@@H]1c1ccccc1	%	-12.26
N#Cc1cnc(NCc2cccc(C(=O)N3CCCC3)c2)c(Cl)c1	%	-5.94
CC[C@H](C)Nc1nccc(-c2cnc3sccn3c2=O)n1	%	96.29
COc1cc(CNC(=O)N2CCCC2c2cc(C)no2)ccn1 (stereo not drawn)	%	-13.9
CCCN(Cc1nccn1C)C(=O)c1cc(C)nc(C)n1	%	-2.808
CC(=O)N1CCC(C)(c2cc(C(=O)NCC(C)(C)C)nc(C)n2)CC1	%	109.7
COCCN(Cc1ccccc1Cl)c1nc(CCN)nc2ccccc12	%	116.2
NCCc1nc(N[C@@H](CO)c2ccccc2)c2ccccc2n1	%	20.3
